Measured Emax, listed per entry for reference.
SYSTEM: μ-opioid receptor (Homo sapiens, UniProt P35372)
Sequence (P35372 whole entry, species assumed): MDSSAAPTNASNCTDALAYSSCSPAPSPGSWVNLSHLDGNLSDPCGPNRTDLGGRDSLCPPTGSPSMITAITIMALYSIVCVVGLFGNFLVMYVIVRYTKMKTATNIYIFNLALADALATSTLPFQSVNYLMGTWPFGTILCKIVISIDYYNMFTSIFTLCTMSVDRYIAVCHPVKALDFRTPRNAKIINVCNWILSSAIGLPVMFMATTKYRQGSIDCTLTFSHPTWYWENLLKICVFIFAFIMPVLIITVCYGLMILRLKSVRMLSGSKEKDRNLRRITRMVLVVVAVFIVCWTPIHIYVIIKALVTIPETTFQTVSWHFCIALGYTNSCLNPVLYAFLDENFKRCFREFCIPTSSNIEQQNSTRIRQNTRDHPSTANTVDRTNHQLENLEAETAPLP
ASSAY DETAILS: μ-opioid receptor [35S]GTPγS functional assay, U-2 OS cells
Type: biochemical
Set-up: host or cells: U-2 OS cells
SETTINGS: U2-OS cells; relative to DAMGO

Qu. Using the record for `N=C(N)NCCCN[C@@H]1CC[C@@]2(O)[C@H]3Cc4ccc(O)cc4[C@@]2(CCN3CC2CC2)C1` , report its Emax.
Ans. 76.3%

Qu. Using the record for `CN(C)[C@H]1CC[C@@]2(O)[C@H]3Cc4ccc(O)cc4[C@@]2(CCN3CC2CC2)C1` , report its Emax.
Ans. 33%

Qu. Using the record for `CC(C)CN[C@@H]1C[C@@]2(O)[C@H]3Cc4ccc(O)cc4[C@@]2(CCN3CC2CC2)C[C@@H]1O` , report its Emax.
Ans. 20.3%

Qu. Using the record for `N=C(N)NCC(=O)N[C@@H]1CC[C@@]2(O)[C@H]3Cc4ccc(O)cc4[C@@]2(CCN3CC2CC2)C1` , report its Emax.
Ans. 62.7%

Qu. Using the record for `NCCN[C@@H]1CC[C@@]2(O)[C@H]3Cc4ccc(O)cc4[C@@]2(CCN3CC2CC2)C1` , report its Emax.
Ans. 70%

Qu. Using the record for `Oc1ccc2c(c1)[C@]13CCN(CC4CC4)[C@H](C2)[C@]1(O)C[C@@H](NCc1ccccc1)[C@@H](O)C3` , report its Emax.
Ans. 24.3%

Further cases:
Qu. Using the record for `CCC(=O)N[C@H]1C[C@@]2(O)[C@H]3Cc4ccc(O)cc4[C@@]2(CCN3CC2CC2)C[C@H]1O` , report its Emax.
Ans. 19.3%

Qu. Using the record for `Oc1ccc2c(c1)[C@]13CCN(CC4CC4)[C@H](C2)[C@]1(O)C[C@@H](N1CCCC1)[C@@H](O)C3` , report its Emax.
Ans. 23.3%

====

SYSTEM: μ-opioid receptor (Homo sapiens, UniProt P35372)
ASSAY DETAILS: μ-opioid receptor [35S]GTPγS functional assay, HEK-293 or CHO cells
Assay type: biochemical
SETTINGS: HEK-293 or CHO cells; relative to DAMGO
METRIC NAME: Emax (%)
Unit % implied. Number only.

Solved entries:
Qu. Using the record for `CN(C)CC(=O)N[C@H]1C[C@@]2(O)[C@H]3Cc4ccc(O)cc4[C@@]2(CCN3CC2CC2)C[C@@H]1O` , report its Emax.
Ans. 1.67

Qu. Using the record for `CC(C)CCCC(=O)O[C@@H]1C[C@]23CCN(CC4CC4)[C@H](Cc4ccc(O)cc42)[C@]3(O)C[C@@H]1N` , report its Emax.
Ans. 14.1

Qu. Using the record for CC(C)C(=O)N[C@H]1C[C@@]2(O)[C@H]3Cc4ccc(O)cc4[C@@]2(CCN3CC2CC2)CC1O (stereo partly drawn) , report its Emax.
Ans. 1

Further cases:
Qu. Using the record for `N=C(N)NCCCCN[C@@H]1CC[C@@]2(O)[C@H]3Cc4ccc(O)cc4[C@@]2(CCN3CC2CC2)C1` , report its Emax.
Ans. 9

Qu. Using the record for `CC(C)CCCC(=O)N[C@H]1C[C@@]2(O)[C@H]3Cc4ccc(O)cc4[C@@]2(CCN3CC2CC2)C[C@@H]1O` , report its Emax.
Ans. -1.04
